Listing of entries alongside the reported IC50.
# measured on: HLA DRB1*13:02 (Homo sapiens, UniProt P01903+P01911, A100E/A169T/K41T/L162R/M171V/P40S/Q125H/Q178H/Q39Y/Q99D/R42S/S66N/T262R/V115G/W38E/Y61H)
# Sequence (P01903 26-254 limits assumed, other chains not shown): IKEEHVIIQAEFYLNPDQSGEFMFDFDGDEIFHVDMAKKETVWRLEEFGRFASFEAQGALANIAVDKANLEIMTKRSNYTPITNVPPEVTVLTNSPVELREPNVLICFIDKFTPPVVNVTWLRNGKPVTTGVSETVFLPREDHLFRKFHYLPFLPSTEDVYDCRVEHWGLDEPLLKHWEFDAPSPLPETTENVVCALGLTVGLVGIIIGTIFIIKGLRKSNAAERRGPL
# experimental details: biochemical
# Type: binding
# recorded conditions: binder threshold 1,000 nM, read-out: In vitro (IC50 nM) DRB1*13:02
Provide only the numeric value, understood in nM.

Solved entries:
molecule: CC[C@H](C)[C@H](NC(=O)[C@@H]1CCCN1C(=O)[C@H](CCSC)NC(=O)[C@@H](N)CC(C)C)C(=O)N[C@@H](CC(C)C)C(=O)N[C@H](C(=O)N[C@@H](CC(C)C)C(=O)N[C@H](C(=O)N[C@@H](CCCNC(=N)N)C(=O)N[C@@H](C)C(=O)N[C@@H](CC(C)C)C(=O)N[C@H](C(=O)N[C@@H](C)C(=O)N[C@@H](CCC(=O)O)C(=O)N[C@@H](CO)C(=O)O)[C@@H](C)O)[C@@H](C)O)[C@@H](C)O
IC50 (nM): 409

molecule: CC[C@H](C)[C@H](NC(=O)[C@H](CCSC)NC(=O)[C@H](CCSC)NC(=O)[C@H](CO)NC(=O)[C@H](Cc1ccccc1)NC(=O)[C@H](Cc1c[nH]cn1)NC(=O)[C@H](CCCCN)NC(=O)[C@H](CCCNC(=N)N)NC(=O)[C@H](CC(C)C)NC(=O)[C@H](Cc1ccc(O)cc1)NC(=O)[C@H](C)NC(=O)[C@@H](N)Cc1ccc(O)cc1)C(=O)N[C@@H](CC(C)C)C(=O)N[C@@H](CO)C(=O)N[C@@H](CC(=O)O)C(=O)O [Peptide 150]
IC50 (nM): 755

molecule: CSCC[C@H](NC(=O)[C@@H](NC(=O)[C@@H]1CCCN1C(=O)[C@H](CC(C)C)NC(=O)[C@H](CC(N)=O)NC(=O)[C@H](Cc1ccc(O)cc1)NC(=O)[C@H](CCCNC(=N)N)NC(=O)[C@H](Cc1ccc(O)cc1)NC(=O)[C@H](Cc1ccc(O)cc1)NC(=O)[C@H](CC(=O)O)NC(=O)[C@H](Cc1ccc(O)cc1)NC(=O)[C@H](CC(=O)O)NC(=O)[C@@H](N)CO)[C@@H](C)O)C(=O)N[C@@H](CS)C(=O)N[C@@H](CC(=O)O)C(=O)O [Peptide 91]
IC50 (nM): 13600

Consider now this further molecule.
[Q] // IC50 lookup, key: CC(C)C[C@H](NC(=O)[C@H](CCCNC(=N)N)NC(=O)[C@H](Cc1ccc(O)cc1)NC(=O)[C@H](Cc1ccccc1)NC(=O)[C@@H](N)CCCNC(=N)N)C(=O)N[C@@H](C)C(=O)N[C@@H](CC(N)=O)C(=O)N[C@@H](CCC(=O)O)C(=O)N[C@@H](CS)C(=O)N[C@@H](C)C(=O)N[C@@H](CCC(N)=O)C(=O)N[C@H](C(=O)N[C@@H](CC(C)C)C(=O)N[C@@H](CO)C(=O)N[C@@H](CCC(=O)O)C(=O)O)C(C)C
[A] 23800
